molecular target: Androgen receptor (Rattus norvegicus); experiment: In vitro relative binding affinity for rat androgen receptor
// reported relative binding affinity (RBA) per item

# compound, relation-sign, relative binding affinity (RBA)
measured = [
    ("N#CCC(O)(/C=C/c1ccc(Cl)c(Cl)c1)C(F)(F)F (configuration not stated)", "=", 3.6),
    ("OC(/C=C/c1ccc(Cl)c(Cl)c1)(CCl)C(F)(F)F (configuration not stated)", "=", 1.8),
    ("Cc1c(C(C)(O)C(F)(F)F)[nH]c2ccccc12 (configuration not stated)", "=", 6.7),
    ("CC(=O)C(O)(/C=C/c1ccc(Cl)c(Cl)c1)C(F)(F)F (configuration not stated)", "=", 0.4),
    ("NC(=O)CC(O)(/C=C/c1ccc(Cl)c(Cl)c1)C(F)(F)F (configuration not stated)", "=", 0.5),
    ("OC(/C=C/c1ccc(Cl)c(Cl)c1)(C(F)(F)F)C(F)(F)F", "<", 0.2),
    ("CC(C)(O)C(=O)Nc1ccc([N+](=O)[O-])c(C(F)(F)F)c1 [HYDROXYFLUTAMIDE]", "=", 2.1),
]

###

// logP lookup, one value per entry
assay: Partition coefficient (logP); format: physicochemical; conditions: octanol/water

# compound, logP
rows = [
    ("CC(C)(O)C(=O)Nc1ccc([N+](=O)[O-])cc1", 1.61),
    ("CC(C(=O)Nc1ccc([N+](=O)[O-])c(C(F)(F)F)c1)C(F)(F)F (centres undefined)", 3.71),
    ("CC(C)(O)C(=O)Nc1ccc([N+](=O)[O-])c(C(F)(F)F)c1 [HYDROXYFLUTAMIDE]", 2.7),
    ("CC(C)C(=O)Nc1ccc([N+](=O)[O-])c(C(F)(F)F)c1 [FLUTAMIDE]", 3.35),
    ("CC(O)(C(=O)Nc1ccc([N+](=O)[O-])c(C(F)(F)F)c1)C(F)(F)F (centres undefined)", 3.21),
    ("CC(C)(O)C(=O)Nc1ccc(Cl)cc1", 2),
    ("CC(O)(C(=O)Nc1ccc([N+](=O)[O-])c(C(F)(F)F)c1)C(F)F (centres undefined)", 3.76),
    ("CN(C(=O)C(C)(C)O)c1ccc([N+](=O)[O-])c(C(F)(F)F)c1", 3.06),
    ("CC(O)(CF)C(=O)Nc1ccc([N+](=O)[O-])c(C(F)(F)F)c1 (centres undefined)", 3.5),
]
